Target: T1, 006 PSMA Fab (biotinylated (site not stated))
T1 construct: Biotinylated PSMA Fab captured on neutravidin coated plates in the clonal phage ELISA; also called Anti-PSMA Fab; anti-PSMA Fab
Assay: clonal phage ELISA, biotinylated PSMA Fab on neutravidin plate, anti-M13 HRP detection, no PSMA antigen
Where no end group is shown, it is not given here.
assay_readout: phage binding ELISA signal
Answers are plain numbers.

List reported phage binding ELISA signal for each of these binders:
1. DYHYCEPAWMCFGF [Phage-3119]
2. GMIQCRPAWMCAGL (cysteine pairing not given here; also: fused to phage pIII, orientation and linker not given here) [Phage-3122]
3. NEPWCVPAWMCTGF [Phage-3120]
4. GYPLCIPEWMCAGF (cysteine pairing not given here; also: fused to phage pIII, orientation and linker not given here) [Phage-3123]
5. EFPLCVPAWMCSGF [Phage-3115]
6. LESMCIPPWMCSGL [Phage-3118]

Ans:
[2.07, 2.07, 2.07, 2.07, 2.08, 2.07]
